Just for reference, paper PMC10397247 is where these values come from.

- measured_target: T1, 4H741-bN
- T1 chain: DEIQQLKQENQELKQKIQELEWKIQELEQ
- assay_text: two-hybrid library CCNG1;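 further: natural log of median RNA to DNA barcode read ratio; higher means stronger binding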
readout_name: interaction score

INSERT INTO measurements (binder, readout_name, recorded_measurement) VALUES
  ('DEIQQLEQKIQELEQKNQELKWKNQELEQ [4H319-bN]', 'interaction score', -0.781);

I. DKIQQLEQENQELEQKIQELKWKNQELEQ [4H2223-bN]
II. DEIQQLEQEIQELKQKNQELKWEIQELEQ [4H121-bN]
III. DKIQQLEQEIQELKQENQELEWKIQELKQ [4H2134-bN]
Prompt line: Falling order of interaction score, please. Thanks in advance for listing the labels in the requested order.
Response line: III, I, II

a. DKIQQLKQENQELEQEIQELEWENQELKQ [4H2692-bN]
b. DEIQQLEQKIQELKQENQELKWENQELKQ [4H348-bN]
Prompt line: Of a and b , which carries the smaller reported interaction score figure? Label of pick, please.
Response line: a
